Test system: UO-31 renal
Assay: NCI tumour cell line growth inhibition, 48 h
METRIC NAME: TGI

Sample answers from the record:
Checklist item: TGI tested on UO-31 renal, entry `COc1ccc(OC)c([N+](=O)[O-])c1-c1nc2sc(C)c(C)n2c1/C=N/N=C(N)N` , value?
> 100 µM

Let us now turn to `CC[C@H]1C=CCC[C@@]2(C[C@@H]3CC[C@H]4[C@@H](C(=O)OCCCCCCCCCCCCCCCC(=O)N(CCCNC(C)=O)C[C@H](CCNC(C)=O)OC(C)=O)[C@@]5(CCC[C@@H](C)O5)NC(=[N+]34)N2)O1`
3.16 µM

Next molecule up: O=C(/N=C1/OC(CN2CCOCC2)CN1C(=O)Nc1ccccc1)Nc1ccccc1 (stereo not drawn)
> 100 µM

What do you get for `O=C(/C=C/c1ccccc1Br)c1ccccc1` ?
11.3 µM

// same read-out, input: `CNC(=O)OCc1nc(N=[N+]=[N-])n(C)c1COC(=O)NC`
> 10 µM

Also need COc1ccc(OC2OC(CO)C(O)C(O)C2O)cc1 (stereo not drawn) , thanks.
> 100 µM

Entry C=C1C(=O)OC2/C=C(\C)CC/C=C(\C)CC(OC(=O)/C(=C/CO)CO)[C@@H]12 (stereo partly drawn) please
23.9 µM

# iterate: `N=C1N=C(N)S/C1=C\c1ccc2ncccc2c1`
> 25 µM

Note, next up: CNC12C3C4C1C1C2C3C41C(=O)N[C@H](C(=O)N(C)[C@H](C[C@@H](OC(C)=O)c1nc(C(=O)N[C@@H](Cc2ccccc2)C[C@H](C)C(=O)OC)cs1)C(C)C)C1CC1 (stereo partly drawn)
> 15 µM

Next entry: CC(=O)[O][Hg][CH2]C1(C)COC(C)([CH2][Hg][O]C(C)=O)CO1 (stereo not drawn)
9.83 µM

For every item below, please supply its TGI.
1. COc1ccccc1Nc1nc2ccccc2c2occc12
2. Oc1cc2c(cc1C(c1ccc3c(c1)OCO3)N1CCN(C(c3ccc4c(c3)OCO4)c3cc4c(cc3O)OCO4)CC1)OCO2 (stereo not drawn)
3. Cc1ccc(/C=C2\CCCCCC2=O)cc1

1: 24 µM; 2: 29.3 µM; 3: > 100 µM

All figures here come from PubChem BioAssay (NCI).
